FYI, the data here is from paper PMC10334471.

tested on: HCT116/OxR; assay: MTT assay, 72 h, HCT116/OxR (oxaliplatin-resistant); assay type: cell-based; settings: 72 h treatment, mean ± SD
readout.kind: IC50 (µM)
Numbers only; they are read as µM.

Q: Given the entry N.N.[Cl][Pt][Cl] [Cisplatin, cisplatin] , report its measured IC50.
Result: 10.4

Q: Given the entry O=C1[O][Pt]2([NH][C@@H]3CCCC[C@H]3[NH]2)[O]C1=O , report its measured IC50.
Result: 27.8

Q: Given the entry CC(=O)Oc1ccccc1C(=O)[O][Pt-2]12([O]C(C)=O)([NH2+][C@@H]3CCCC[C@H]3[NH2+]1)[O]C(=O)C(=O)[O]2 , report its measured IC50.
Result: 42.8

Q: Given the entry CC(=O)Oc1ccccc1C(=O)[O][Pt]([OH])([Cl])[Cl].N.N , report its measured IC50.
Result: 8.7
